For each of the molecules below, state its kcat.
- Procedure Text: Ac-VEID-AFC hydrolysis kinetics of recombinant Casp6 variants (Michaelis-Menten)
- Assay type: biochemical, human
- Test Context: Ac-VEID-AFC hydrolysis, mean ± SD
Give a bare numeral; the unit s⁻¹ is implied.

Challenge: Give recorded kcat. Casp6-A34E: recombinant rare natural human Casp6 missense variant A34E (protein, UniProt P55212 1-293, looked up, variant A34E) MSSASGLRRGHPAGGEENMTETDAFYKREMFDPEEKYKMDHRRRGIALIFNHERFFWHLTLPERRGTCADRDNLTRRFSDLGFEVKCFNDLKAEELLLKIHEVSTVSHADADCFVCVFLSHGEGNHIYAYDAKIEIQTLTGLFKGDKCHSLVGKPKIFIIQACRGNQHDVPVIPLDVVDNQTEKLDTNITEVDAASVYTLPAGADFLMCYSVAEGYYSHRETVNGSWYIQDLCEMLGKYGSSLEFTELLTLVNRKVSQRRVDFCKDPSAIGKKQVPCFASMLTKKLHFFPKSN
Response given: 2.04

Challenge: Give recorded kcat. Casp6-L200A-LS-SS: fully processed Casp6 L200A from co-expression of large and small subunits (protein, UniProt P55212 1-293, looked up, variant L200A) MSSASGLRRGHPAGGEENMTETDAFYKREMFDPAEKYKMDHRRRGIALIFNHERFFWHLTLPERRGTCADRDNLTRRFSDLGFEVKCFNDLKAEELLLKIHEVSTVSHADADCFVCVFLSHGEGNHIYAYDAKIEIQTLTGLFKGDKCHSLVGKPKIFIIQACRGNQHDVPVIPLDVVDNQTEKLDTNITEVDAASVYTAPAGADFLMCYSVAEGYYSHRETVNGSWYIQDLCEMLGKYGSSLEFTELLTLVNRKVSQRRVDFCKDPSAIGKKQVPCFASMLTKKLHFFPKSN
Response given: 2.8

Challenge: Give recorded kcat. Casp6-K284A-LS-SS: fully processed Casp6 K284A from co-expression of large and small subunits (protein, UniProt P55212 1-293, looked up, variant K284A) MSSASGLRRGHPAGGEENMTETDAFYKREMFDPAEKYKMDHRRRGIALIFNHERFFWHLTLPERRGTCADRDNLTRRFSDLGFEVKCFNDLKAEELLLKIHEVSTVSHADADCFVCVFLSHGEGNHIYAYDAKIEIQTLTGLFKGDKCHSLVGKPKIFIIQACRGNQHDVPVIPLDVVDNQTEKLDTNITEVDAASVYTLPAGADFLMCYSVAEGYYSHRETVNGSWYIQDLCEMLGKYGSSLEFTELLTLVNRKVSQRRVDFCKDPSAIGKKQVPCFASMLTAKLHFFPKSN
Response given: 2.8

Challenge: Give recorded kcat. Casp6-K284A: Casp6 K284A alanine mutant from full-length construct, partially self-processed (protein, UniProt P55212 1-293, looked up, variant K284A, full-length, Casp6 K284A alanine mutant from full-length construct, partially self-processed) MSSASGLRRGHPAGGEENMTETDAFYKREMFDPAEKYKMDHRRRGIALIFNHERFFWHLTLPERRGTCADRDNLTRRFSDLGFEVKCFNDLKAEELLLKIHEVSTVSHADADCFVCVFLSHGEGNHIYAYDAKIEIQTLTGLFKGDKCHSLVGKPKIFIIQACRGNQHDVPVIPLDVVDNQTEKLDTNITEVDAASVYTLPAGADFLMCYSVAEGYYSHRETVNGSWYIQDLCEMLGKYGSSLEFTELLTLVNRKVSQRRVDFCKDPSAIGKKQVPCFASMLTAKLHFFPKSN
Response given: 2.0

Cited source: paper PMC6445123
